Below, each entry is listed alongside its reported koff.
target: T1, soluble mouse BLyS (mouse, UniProt Q9WU72 127-309); test: Biacore, antibody captured on chip, BLyS injected, 1:1 model, 25 C
T1 construct: europium-labelled in DELFIA; also called mBLyS; mouse BAFF (BLyS)
Express your answer in s⁻¹, writing the number without its unit.

# BINDER, koff / s⁻¹
rows = [
    ("5B7 IgG1 F243A/V264A double mutein expressed in Pichia pastoris (antibody, V domains shown, IgG1 F243A/V264A (EU) double mutein, alpha-2,6-sialylated, from glycoengineered Pichia pastoris; also called 5B7-DM; 5B7-DM Pichia) VH: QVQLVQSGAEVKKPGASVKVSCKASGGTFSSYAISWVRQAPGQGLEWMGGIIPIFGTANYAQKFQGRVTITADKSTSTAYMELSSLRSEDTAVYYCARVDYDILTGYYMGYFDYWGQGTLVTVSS VL: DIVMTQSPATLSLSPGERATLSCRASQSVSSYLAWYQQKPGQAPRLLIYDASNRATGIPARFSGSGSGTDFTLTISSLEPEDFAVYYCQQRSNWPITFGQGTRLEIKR", "4e-05"),
    ("6C10 IgG expressed in HEK293 cells (antibody, V domains shown, IgG from HEK293-FreeStyle cells; also called 6C10 (293)) VH: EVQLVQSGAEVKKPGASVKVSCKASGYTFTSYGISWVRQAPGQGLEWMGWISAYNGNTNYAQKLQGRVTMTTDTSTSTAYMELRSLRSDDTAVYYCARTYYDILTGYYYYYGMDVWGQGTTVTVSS VL: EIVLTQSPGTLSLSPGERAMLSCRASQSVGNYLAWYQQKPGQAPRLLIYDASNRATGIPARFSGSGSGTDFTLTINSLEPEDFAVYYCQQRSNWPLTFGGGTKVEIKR", "6.7e-05"),
    ("6C10 IgG1 F243A/V264A double mutein expressed in Pichia pastoris (antibody, V domains shown, IgG1 F243A/V264A (EU) double mutein, alpha-2,6-sialylated, from glycoengineered Pichia pastoris; also called 6C10-DM; 6C10-DM (Pichia)) VH: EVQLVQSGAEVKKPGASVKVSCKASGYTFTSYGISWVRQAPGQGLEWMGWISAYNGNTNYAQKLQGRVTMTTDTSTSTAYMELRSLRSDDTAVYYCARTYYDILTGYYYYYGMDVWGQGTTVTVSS VL: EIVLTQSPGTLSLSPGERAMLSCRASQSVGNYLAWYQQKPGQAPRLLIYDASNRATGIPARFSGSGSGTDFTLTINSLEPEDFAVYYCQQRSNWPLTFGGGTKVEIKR", "7.9e-05"),
]

// switching to the query binder
Enquiry: Given the binder 5B7 IgG expressed in HEK293 cells (antibody, V domains shown, also called 5B7 (293); 5B7-HEK293) VH: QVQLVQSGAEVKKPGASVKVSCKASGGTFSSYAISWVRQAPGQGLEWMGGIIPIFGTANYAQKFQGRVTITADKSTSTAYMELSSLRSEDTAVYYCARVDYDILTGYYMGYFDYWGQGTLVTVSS VL: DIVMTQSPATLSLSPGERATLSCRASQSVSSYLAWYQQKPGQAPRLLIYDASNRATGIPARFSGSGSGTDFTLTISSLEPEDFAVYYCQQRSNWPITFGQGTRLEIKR , what is its reported koff?
Return: 4.2e-05
